src = PubChem BioAssay (NCI)

system: NCI-H23 lung; assay: NCI-60 one-dose screen, 48 h (100 = growth as untreated, 0 = no growth, -100 = all killed); conditions: 10 µM unless noted
This is part of a sample that, as a whole, favours compounds with a hit. Of some 83,000 tested, about 20% had one in any assay.
Reported growth values for a set of molecules
Write it as a number; the unit % goes unstated.

Solved entries (count: 2):
O=CN1N=C(c2ccc(Nc3ccnc4cc(Cl)ccc34)cc2)CC1c1ccccc1 (stereo unspecified); 48
COc1ccc(S(=O)(=O)n2c3ccccc3n3ncc(-c4nnc(C)o4)c23)cc1; 31.7

[Q] Would you mind telling me what growth value was observed for COc1ccc(C2CC(c3ccc(Nc4ccnc5cc(Cl)ccc45)cc3)=NN2C=O)cc1 (stereo unspecified) ?
[A] 76.9

[Q] Would you mind telling me what growth value was observed for "O=C(Nc1ccc(Cl)cc1F)c1ccccc1O" ?
[A] 17

[Q] Would you mind telling me what growth value was observed for "CNC(=O)c1cc(-n2ccc3cc(NC(=O)c4ccc(N5CCOCC5)c(C(F)(F)F)c4)ccc32)ccn1" ?
[A] 64

[Q] Would you mind telling me what growth value was observed for "Cc1c(C(=O)NCCN2CCOCC2)cn2ncnc(Oc3ccc(NC(=O)Nc4ccc(Cl)c(C(F)(F)F)c4)cc3)c12" ?
[A] 13.9
